All figures here come from paper PMC9120017.

Target: mouse TMEM16A mutant Y598A (Mus musculus, UniProt Q8BHY3, Y598A)
Construct: expressed in transfected cells; host or cells: HEK293T
Test: Inside-out patch recording of 1PBC block, mutant Y598A
Assay type: cell-based
Details: -20 mV; 2 µM Ca2+
assayMetric: pIC50
pIC50 field: float, defined as -log10 of concentration (mol/L).

Record request: pIC50 value, item N#Cc1c(C(F)(F)F)cc(O)n2c1nc1ccccc12
5.24

---

Target: mouse TMEM16A mutant I516A (Mus musculus, UniProt Q8BHY3, I516A)
Construct: expressed in transfected cells; host or cells: HEK293T
Sequence (Q8BHY3 1-960 I516A): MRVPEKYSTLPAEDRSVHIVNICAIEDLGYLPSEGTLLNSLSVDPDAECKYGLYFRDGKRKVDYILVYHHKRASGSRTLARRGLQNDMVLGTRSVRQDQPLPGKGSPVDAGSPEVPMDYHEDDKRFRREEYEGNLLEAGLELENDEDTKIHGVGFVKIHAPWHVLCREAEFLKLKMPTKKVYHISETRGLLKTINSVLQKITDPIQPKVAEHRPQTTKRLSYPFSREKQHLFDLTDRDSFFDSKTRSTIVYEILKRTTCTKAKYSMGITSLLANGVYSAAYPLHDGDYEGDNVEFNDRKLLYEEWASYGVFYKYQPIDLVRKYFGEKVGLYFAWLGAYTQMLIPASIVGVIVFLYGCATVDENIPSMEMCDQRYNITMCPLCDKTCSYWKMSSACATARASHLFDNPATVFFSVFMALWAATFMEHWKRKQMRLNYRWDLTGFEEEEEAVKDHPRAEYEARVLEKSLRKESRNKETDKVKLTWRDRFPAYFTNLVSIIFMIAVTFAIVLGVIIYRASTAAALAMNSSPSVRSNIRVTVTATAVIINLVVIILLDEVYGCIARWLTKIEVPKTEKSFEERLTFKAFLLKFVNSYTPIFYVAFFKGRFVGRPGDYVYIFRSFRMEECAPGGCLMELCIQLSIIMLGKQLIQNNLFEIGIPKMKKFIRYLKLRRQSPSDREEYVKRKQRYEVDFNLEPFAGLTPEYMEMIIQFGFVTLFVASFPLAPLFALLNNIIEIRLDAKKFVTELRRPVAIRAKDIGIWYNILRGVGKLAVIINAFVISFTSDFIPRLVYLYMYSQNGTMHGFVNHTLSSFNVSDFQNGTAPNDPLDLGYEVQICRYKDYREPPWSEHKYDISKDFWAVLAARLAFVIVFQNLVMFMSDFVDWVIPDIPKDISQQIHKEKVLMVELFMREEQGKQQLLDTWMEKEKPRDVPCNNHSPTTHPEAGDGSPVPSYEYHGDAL
Experiment: Inside-out patch recording of 1PBC block, mutant I516A
Format: cell-based
Conditions: -40 mV; 2 µM Ca2+
assayMetric: pIC50
pIC50 field: float, defined as -log10 of concentration (mol/L).

Record request: pIC50 value, item N#Cc1c(C(F)(F)F)cc(O)n2c1nc1ccccc12 [1PBC]
5.10

---

Biological target: wild-type mouse TMEM16A (Mus musculus, UniProt Q8BHY3)
Construct: expressed in transfected cells; host or cells: HEK293T
Assay: Inside-out patch recording of 1PBC block, wild-type TMEM16A
Format: cell-based
Conditions: -100 mV; 2 µM Ca2+
Description: HEK293T cells (ATCC CRL-1573) were maintained in Dulbecco’s modified Eagle’s medium (DMEM; Sigma-Aldrich) supplemented with 10 U ml^−1 penicillin, 0.1 mg ml^−1 streptomycin (Sigma-Aldrich), 2 mM L-glutamine (Sigma-Aldrich), and 10% FBS (Sigma-Aldrich) in a humidified atmosphere containing 5% CO2 at 37 °C. […]
assayMetric: pIC50
pIC50 field: float, defined as -log10 of concentration (mol/L).

Record request: pIC50 value, item N#Cc1c(C(F)(F)F)cc(O)n2c1nc1ccccc12 [1PBC]
4.85
